B1: FEM1A (parent)
chain: NIVEYLIQEQPGQEQVAGGEAQPG

Variants of: B1
Assay: protein stability index of a GFP-peptide fusion (GPS, HEK-293T) (PSI 1-6); higher = more stable;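 further: lentivirally expressed fusions sorted by FACS into six bins by GFP to DsRed ratio, PSI derived from sequencing read proportions per bin multiplied by bin number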
Conditions: c terminus: a fixed tail appended
Threshold rule: protein stability index greater than or equal to 4 is Fulfilled; below that, Not fulfilled.

Given I2P , state whether its protein stability index is at least 4.
Fulfilled

Given V3N , state whether its protein stability index is at least 4.
Fulfilled

Given A21P , state whether its protein stability index is at least 4.
Fulfilled

Given E9M , state whether its protein stability index is at least 4.
Not fulfilled

Given I7M , state whether its protein stability index is at least 4.
Fulfilled

New cases:
Given E20W , state whether its protein stability index is at least 4.
Not fulfilled
